# target.system: HLA-A*31:01
# protocol.description: IEDB peptide-MHC binding, purified MHC/direct/fluorescence; filed as Kd, often an IC50 or EC50 that approximates it; bounds were set here for any values at or beyond the usual limits of such assays
# test.conditions: source organism: Giardia lamblia ATCC 50803
pKd: −log10 of the molar value.
quantity: pKd

Give pKd for all sequences that follow.
1. LPVFATIGL
2. RPRGHREFC
3. SVKERGPAY

["≤ 4.70", "≤ 4.70", "≤ 4.70"]

====

# target.system: HLA-A*11:01
# protocol.description: IEDB peptide-MHC binding, purified MHC/direct/fluorescence; filed as Kd, often an IC50 or EC50 that approximates it; bounds were set here for any values at or beyond the usual limits of such assays
# test.conditions: source organism: Influenza A virus (A/duck/Mongolia/47/2001(H7N1))
pKd: −log10 of the molar value.
quantity: pKd

Record THFQRKRRV . Reported pKd: ≤ 4.70
